measurement.description: Quantitative High-Throughput drug screen in 47 multiple myeloma cell lines against the NCATS MIPE library collection: MM1S_ATCC cell viability assay (AID 1918980); note: nearly all actives have a fitted effect of over 45% in size
conditions: MM1S myeloma viability, CellTiter-Glo ATP luminescence, 48 h; series mostly up to 45.8 µM
Records with an inconclusive call do not appear. Calls of active or inactive are those of the source. Calls come from the whole dose curve; as a rule, active = well fitted cell-killing curve with a large enough effect; inconclusive = small, poorly fitted or top-dose-only effect, or effect the other way; inactive = no such curve, though single readings can be large or run the other way.
Valid outcomes are listed here; reply with one: TRUE = active, FALSE = inactive

// below: answered molecules
CC(C)(Oc1ccc(C2CC2(Cl)Cl)cc1)C(=O)O (stereo not given); TRUE
CN(C)C(=O)C(CCN1CCC(O)(c2ccc(Cl)cc2)CC1)(c1ccccc1)c1ccccc1; TRUE
Cn1c(=O)c2c(ncn2C)n(C)c1=O; FALSE
CC#C[C@]1(O)CC[C@H]2[C@@H]3CCC4=CC(=O)CCC4=C3[C@@H](c3ccc(N(C)C)cc3)C[C@@]21C; TRUE
Cn1cnc2c1c(=O)[nH]c(=O)n2C; TRUE

// return assay outcome for OCCN1CCN(CCCN2c3ccccc3Sc3ccc(C(F)(F)F)cc32)CC1
TRUE

What classification did Nc1c2c(nc3ccccc13)CCCC2 end up with in this test?
TRUE
